- study.system: 1,25-dihydroxyvitamin D(3) 24-hydroxylase, mitochondrial (Homo sapiens, UniProt Q07973)
- Sequence (Q07973 whole entry): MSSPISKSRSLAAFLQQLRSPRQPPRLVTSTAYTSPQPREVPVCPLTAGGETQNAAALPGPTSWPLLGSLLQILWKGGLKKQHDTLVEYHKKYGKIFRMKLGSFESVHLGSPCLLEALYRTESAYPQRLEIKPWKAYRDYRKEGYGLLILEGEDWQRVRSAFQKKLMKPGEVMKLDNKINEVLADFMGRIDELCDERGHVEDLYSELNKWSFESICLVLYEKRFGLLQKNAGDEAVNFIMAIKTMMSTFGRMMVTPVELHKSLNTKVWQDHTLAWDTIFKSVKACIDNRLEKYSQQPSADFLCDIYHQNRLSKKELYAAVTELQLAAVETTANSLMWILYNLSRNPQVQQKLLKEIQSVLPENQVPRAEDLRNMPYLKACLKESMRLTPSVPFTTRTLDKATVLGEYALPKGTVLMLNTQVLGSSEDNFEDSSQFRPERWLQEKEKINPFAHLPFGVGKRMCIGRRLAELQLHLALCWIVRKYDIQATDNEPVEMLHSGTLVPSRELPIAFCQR
- test.details: Inhibition of human MBP-tagged CYP24A1 expressed in Escherichia coli using 1,25(OH)2D3 substrate in presence of bovine adrenodoxin, adrenodoxin reductase and NADPH incubated at 37 degC for 25 mins by HPLC method
value.kind: Ki (nM)
Return type: number; implicit unit nM.

# annotated cases, reported Ki shown
{"molecule": "COc1cc(/C=C/c2ccc(C(=O)NCC(c3ccccc3)n3ccnc3)cc2)cc(OC)c1OC (centres undefined)", "study.system": "1,25-dihydroxyvitamin D(3) 24-hydroxylase, mitochondrial (Homo sapiens, UniProt Q07973)", "value.kind": "Ki", "reported.value": 9.7}
{"molecule": "C=C1[C@H](O)CC(=C/C=C2\\CCC[C@]3(C)[C@@H]([C@H](C)Cn4ccnc4)CC[C@@H]23)C[C@H]1O", "study.system": "1,25-dihydroxyvitamin D(3) 24-hydroxylase, mitochondrial (Homo sapiens, UniProt Q07973)", "value.kind": "Ki", "reported.value": 21}
{"molecule": "O=C(NCC(c1ccccc1)n1ccnc1)c1ccc(S(=O)(=O)Nc2ccccc2)cc1 (centres undefined)", "study.system": "1,25-dihydroxyvitamin D(3) 24-hydroxylase, mitochondrial (Homo sapiens, UniProt Q07973)", "value.kind": "Ki", "reported.value": 91}

Now consider the entry below.
Lookup: # query: Ki of entry C=C1CC[C@H](O)C/C1=C/C=C1\CCC[C@]2(C)[C@@H]([C@H](C)CCCOS(=O)(=O)c3ccc(C)cc3)CC[C@@H]12
Found: 39

---

- study.system: 1,25-dihydroxyvitamin D(3) 24-hydroxylase, mitochondrial (Homo sapiens, UniProt Q07973)
- test.details: Inhibition of human MBP-tagged CYP24A1 expressed in Escherichia coli using 1,25(OH)2D3 substrate in presence of bovine adrenodoxin, adrenodoxin reductase and NADPH incubated at 37 degC for 25 mins by HPLC method
// reported pKi for each item listed
Keep it numeric: pKi is minus log10 of the concentration in mol/L.

# annotated cases, reported pKi shown
{"compound": "O=C(NCC(c1ccccc1)n1ccnc1)c1ccc(CCc2ccc(F)cc2)cc1 (stereo not drawn)", "pKi": 7.44}
{"compound": "COc1cc(/C=C/c2ccc(CCC(OC(=O)n3ccnc3)C(C)(C)C)cc2)cc(OC)c1 (stereo not drawn)", "pKi": 7.96}

Now consider the entry below.
Lookup: # query: pKi of entry O=C(NCC(c1ccccc1)n1ccnc1)c1ccc(/C=C/c2ccc(F)cc2)cc1 (stereo not drawn)
Found: 7.72

---

- test.details: Induction of apoptosis in normal human B cells after 48 hrs by Annexin V/propidium iodide staining based flow cytometry
- Format: cell-based, B cell
- condition.details: read-out: LD50
value.kind: CC50 at 48 h (µM)
Return type: number; implicit unit µM.

Lookup: # query: CC50 at 48 h of entry C=C1/C(=C\C=C2/CCC[C@]3(C)[C@@H]([C@H](C)CCCC(C)(C)O)CC[C@@H]23)C[C@@H](O)C[C@@H]1O
Found: 6.51

---

- study.system: 1,25-dihydroxyvitamin D(3) 24-hydroxylase, mitochondrial (Homo sapiens, UniProt Q07973)
- Sequence (Q07973 whole entry): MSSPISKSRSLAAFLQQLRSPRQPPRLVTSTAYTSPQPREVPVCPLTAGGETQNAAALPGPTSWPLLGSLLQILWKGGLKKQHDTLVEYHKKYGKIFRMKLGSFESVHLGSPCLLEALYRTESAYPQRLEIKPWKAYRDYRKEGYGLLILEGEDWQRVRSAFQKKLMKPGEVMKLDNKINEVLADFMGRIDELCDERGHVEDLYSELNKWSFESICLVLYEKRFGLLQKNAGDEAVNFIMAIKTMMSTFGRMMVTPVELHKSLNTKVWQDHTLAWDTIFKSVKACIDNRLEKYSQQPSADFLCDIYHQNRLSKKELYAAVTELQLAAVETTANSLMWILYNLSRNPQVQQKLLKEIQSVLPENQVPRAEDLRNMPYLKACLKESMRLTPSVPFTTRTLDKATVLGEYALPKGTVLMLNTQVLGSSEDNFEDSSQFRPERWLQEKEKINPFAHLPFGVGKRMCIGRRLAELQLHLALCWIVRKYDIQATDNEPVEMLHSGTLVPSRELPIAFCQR
- test.details: Inhibition of human MBP-tagged CYP24A1 expressed in Escherichia coli using 1,25(OH)2D3 substrate in presence of bovine adrenodoxin, adrenodoxin reductase and NADPH incubated at 37 degC for 25 mins by HPLC method
Rule: Ki below 0.1 µM gives 1, anything at or above gives 0.

Worked set:
{"compound": "COc1ccc(/C=C/c2ccc(C(=O)NCC(c3ccccc3)n3ccnc3)cc2)cc1 (stereo not given)", "classification": 1}
{"compound": "COc1cc(/C=C/c2ccc(CCC(OS(C)(=O)=O)C(C)(C)C)cc2)cc(OC)c1 (stereo not given)", "classification": 0}
{"compound": "CC(C)(C)C(CCc1ccc(/C=C/c2ccccc2)cc1)OS(C)(=O)=O (stereo not given)", "classification": 0}
{"compound": "CC(C)(C)C(=O)/C(=C/c1ccc(/C=C/c2ccccc2)cc1)n1ccnc1", "classification": 1}
{"compound": "O=C(NCC(c1ccccc1)n1ccnc1)c1ccc(/C=C/c2ccccc2)cc1 (stereo not given)", "classification": 1}

Lookup: Identify whether the compound C=C1[C@H](O)CC(=C/C=C2\CCC[C@]3(C)[C@@H]([C@H](C)CCCNC4CC4)CC[C@@H]23)C[C@H]1O records Ki below 0.1 µM.
Found: 1

Lookup: Identify whether the compound COc1cc(/C=C/c2ccc(C(=O)NCC(c3ccccc3)n3ccnc3)cc2)cc(OC)c1 (stereo not given) records Ki below 0.1 µM.
Found: 1

Lookup: Identify whether the compound CC(C)(C)C(=O)C(Cc1ccc(CCc2ccccc2)cc1)n1ccnc1 (stereo not given) records Ki below 0.1 µM.
Found: 1

Lookup: Identify whether the compound COc1cc(/C=C/c2ccc(CCC(OS(=O)(=O)c3ccc(C)cc3)C(C)(C)C)cc2)cc(OC)c1 (stereo not given) records Ki below 0.1 µM.
Found: 0

Lookup: Identify whether the compound COc1cc(/C=C/c2ccc(CCC(=O)C(C)(C)C)cc2)cc(OC)c1 records Ki below 0.1 µM.
Found: 0

---

- study.system: 1,25-dihydroxyvitamin D(3) 24-hydroxylase, mitochondrial (Homo sapiens, UniProt Q07973)
- test.details: Inhibition of human MBP-tagged CYP24A1 expressed in Escherichia coli using 1,25(OH)2D3 substrate in presence of bovine adrenodoxin, adrenodoxin reductase and NADPH incubated at 37 degC for 25 mins by HPLC method
value.kind: log10(IC50) (log10 of the value in nM)
In our notation, the value equals log10 of IC50 in nM.

# annotated cases, reported log10(IC50) shown
{"molecule": "O=C(NCC(c1ccccc1)n1ccnc1)c1ccc(/C=C/c2ccccc2)cc1 (stereo not given)", "study.system": "1,25-dihydroxyvitamin D(3) 24-hydroxylase, mitochondrial (Homo sapiens, UniProt Q07973)", "value.kind": "log10(IC50)", "reported.value": 2.60}
{"molecule": "Clc1cccc(C(c2ccc3[nH]cnc3c2)n2ccnc2)c1 (stereo not given) [LIAROZOLE]", "study.system": "1,25-dihydroxyvitamin D(3) 24-hydroxylase, mitochondrial (Homo sapiens, UniProt Q07973)", "value.kind": "log10(IC50)", "reported.value": 0.36}
{"molecule": "CC(C)(C)C(CCc1ccc(/C=C/c2ccccc2)cc1)OS(C)(=O)=O (stereo not given)", "study.system": "1,25-dihydroxyvitamin D(3) 24-hydroxylase, mitochondrial (Homo sapiens, UniProt Q07973)", "value.kind": "log10(IC50)", "reported.value": 3.75}
{"molecule": "COc1cc(/C=C/c2ccc(CCC(OS(C)(=O)=O)C(C)(C)C)cc2)cc(OC)c1 (stereo not given)", "study.system": "1,25-dihydroxyvitamin D(3) 24-hydroxylase, mitochondrial (Homo sapiens, UniProt Q07973)", "value.kind": "log10(IC50)", "reported.value": 3.73}

Now consider the entry below.
Lookup: # query: log10(IC50) of entry COc1cc(/C=C/c2ccc(CCC(OS(=O)(=O)c3ccc(C)cc3)C(C)(C)C)cc2)cc(OC)c1 (stereo not given)
Found: 3.46

src = ChEMBL document CHEMBL3352685
